Assign Tmax to each entry below.
assay: Pharmacokinetics in beagles, single-dose regimen of TRQI (i.v.) or TRQC (oral), plasma LC-MS/MS; format: in vivo, beagle; conditions: both sexes, beagle, dog, plasma; single oral dose of TRQC 0.09 g/kg; mean of six beagles
Numbers only, in h.

Please review the following examples before continuing.
O=C(O)[C@H]1O[C@@H](Oc2cc3oc(-c4ccccc4)cc(=O)c3c(O)c2O)[C@H](O)[C@@H](O)[C@@H]1O
3.78
C[C@H](CCC(=O)O)[C@H]1CC[C@H]2[C@@H]3[C@@H](O)C[C@@H]4C[C@H](O)CC[C@]4(C)[C@H]3CC[C@]12C
5.94
O=C(/C=C/c1ccc(O)c(O)c1)O[C@@H]1C[C@](O)(C(=O)O)C[C@@H](O)[C@H]1O
3.75

Attention now shifts to the item below.
State its Tmax: C[C@H](CCC(=O)O)[C@H]1CC[C@H]2[C@@H]3[C@H](O)C[C@@H]4C[C@H](O)CC[C@]4(C)[C@H]3CC[C@]12C
7.53
